- Tested on: IGROV-1
- TEST: Growth inhibition of human IGROV1 cells at 10 uM after 48 hrs by SRB assay
- Format: functional
- RUN_PARAMETERS: IGROV-1, 48 h, read-out: GI
MEASURED_ENDPOINT: inhibition of growth at 10 µM

1) O=c1c2cccc3c(N4CCOCC4)ccc(c32)c2nc3ccccc3n12 :: 41.7%
2) O=c1c2cccc3c(NCCO)ccc(c32)c2nc3ccccc3n12 :: 63.5%
3) Nc1ccc(Sc2ccc3c4c2cccc4c(=O)n2c4ccccc4nc32)cc1 :: 65.5%
4) O=c1c2cccc3c(Nc4c(F)cccc4F)ccc(c32)c2nc3ccccc3n12 :: 46.6%
